Entry source: ChEMBL document CHEMBL1201862

system: NCI-H522; test: NCI tumour cell line growth inhibition, 48 h
Calls of active or inactive are those of the source. No stated cut-off is given here; in the data, active = GI50 up to about 1.1 µM and inactive = higher.
Recorded GI50 for the following molecules
EXPERIMENTAL_READOUT: GI50

>>> data_value("N#Cc1cc([N+](=O)[O-])ccc1NC(=O)C(=O)Nn1c(S)nc2ccccc2c1=O")
"> 100 µM (inactive)"
>>> data_value("COc1cc2cc[n+](C)c(Cc3ccc(Oc4cc(Cc5c6cc(OC)c(OC)cc6cc[n+]5C)ccc4OC)cc3)c2cc1OC")
"> 100 µM (inactive)"
>>> data_value("Nc1c(C(=O)O)nnc2cc(Cl)ccc12")
"> 100 µM (inactive)"
>>> data_value("O=C(O)CN1C(=O)C(Cc2ccc(O)cc2)N=C(c2cccc(O)c2)c2ccccc21 (stereo not given)")
"80.4 µM (inactive)"
>>> data_value("C=C1CC(CN2CCC(=O)NC2=O)(c2ccccc2)OC1=O (stereo not given)")
"0.859 µM (active)"
>>> data_value("CCCc1cn2c(/C=N/NC(=N)N)c(-c3ccc(Cl)c([N+](=O)[O-])c3)nc2s1")
"1.98 µM (inactive)"
>>> data_value("CCCCCCCCCCSS(=O)(=O)c1ccc(C)cc1")
"6.4 µM (inactive)"
>>> data_value("COc1ccc(-c2nc(-c3cnccn3)n(C3OC(CO)C(O)C(O)C3O)n2)cc1 (stereo not given)")
"> 100 µM (inactive)"
>>> data_value("O=P(O)(O)CN1CCNCCN(CP(=O)(O)O)CC1")
"19.9 µM (inactive)"
>>> data_value("N#CC1=C(N)N(c2ccccc2)C(c2ccco2)C1(C#N)C#N (stereo not given)")
"16.7 µM (inactive)"

* * *

GI50 reference
test system: HOP-62; assay: NCI tumour cell line growth inhibition, 48 h
Activity calls are given as the source filed them. Rule as the data show it: active = GI50 up to about 1.1 µM and inactive = higher.
EXPERIMENTAL_READOUT: GI50

>>> data_value("O=C1c2ccccc2OCC12OC21C=CC(Cl)=CC1 (stereo not given)")
"33.7 µM (inactive)"
>>> data_value("COc1ccc(-c2cc(=O)c3c(O)cccc3o2)c(OC)c1OC")
"10.3 µM (inactive)"
>>> data_value("COc1ccc(NC(=O)CCc2cc(-c3ccc(O)c(OC)c3)nc(NC#N)n2)cc1")
"> 100 µM (inactive)"
>>> data_value("CCSc1nnc(Sc2c3ccccc3nc3ccccc23)s1")
"> 58.6 µM (inactive)"
>>> data_value("O=C1C=CC2(O[C@H](c3ccccc3)[C@@H](c3ccccc3)O2)C(SC(=O)c2ccccc2)C1 (stereo not given in full)")
"1.38 µM (inactive)"

* * *

system: PC-3; experiment: NCI tumour cell line growth inhibition, 48 h
Calls of active or inactive are those of the source. No stated cut-off is given here; in the data, active = GI50 up to about 1.1 µM and inactive = higher.
Possible outcomes: active, inactive

>>> group_label("CCN(CC)CC(C)(C)C(=O)/C=C/c1ccc(/C=C/C(=O)C(C)(C)CN(CC)CC)cc1")
"active"
>>> group_label("CC(O)c1cc2c(s1)C(=O)c1scc(C(C)O)c1C2=O (stereo not given)")
"active"
>>> group_label("NNc1nnc(CCCCCCCCc2nnc(NN)n2N)n1N")
"inactive"
>>> group_label("CN(C)CCNc1ccc([N+](=O)[O-])c2nc3ccccc3c(N)c12")
"active"
>>> group_label("CCN(C(=S)N[C@@H](Cc1ccccc1)C(=O)N[C@@H](CC(C)C)C(=O)OC)c1ccccc1")
"inactive"
>>> group_label("CC(Br)CN(CC(C)Br)c1ccc2c(c1)Cc1ccccc1-2 (stereo not given)")
"inactive"
>>> group_label("CO[C@@H]1C[C@H]2N3CC[C@@]2(c2cc4c(cc2C3)OCO4)[C@H]2O[C@@H]12")
"inactive"
>>> group_label("CCOC(=O)C(C(=O)OCC)C1C=CCC2c3ccccc3COCC21 (stereo not given)")
"inactive"
>>> group_label("C[C@]12CC[C@H]3[C@@H](CC=C4C[C@@H](O)CC[C@@]43C)[C@@H]1C/C(=C/c1ccccc1)[C@@H]2O")
"inactive"
>>> group_label("c1cc(-c2cnc(-c3ccc4c(c3)CCCO4)o2)ccn1")
"inactive"
>>> group_label("COc1cc2c(/C=C3/C(=O)Nc4ccc(Cl)cc43)c(Cl)n(Cc3ccccc3)c2cc1C")
"inactive"
>>> group_label("Cc1ccc(NC(=O)c2ccc(OP(=O)(O)Nc3ccc(C)cc3)cc2)cc1")
"inactive"
>>> group_label("O=C1/C(=C\\c2ccc([N+](=O)[O-])cc2)N(S(=O)(=O)c2ccccc2)c2ncccc21")
"inactive"
>>> group_label("COc1cc(N(CCC#N)CCC#N)ccc1C(=N/NC(=O)c1cc(Br)ccc1O)/N=N/c1ccc(C)cc1")
"inactive"
>>> group_label("COC(=O)/C=C(/C)n1nc2ccccc2n1")
"inactive"
>>> group_label("CCOC(=O)/C=C(/C(=O)OCC)n1cc(C)c(=O)[nH]c1=O")
"inactive"
>>> group_label("Cc1c(N2CCCC2)cc2c(c1NC(=O)c1ccccc1Cl)C(C)(C)CC2(C)C")
"inactive"
>>> group_label("NNC(=S)N1CCN(C(=S)NN)CC1")
"inactive"
>>> group_label("Oc1cc(-c2cccc(Cl)c2)nc2cc3c(cc12)OCO3")
"active"
>>> group_label("CCC1C(c2cc(OC)c(OC)c(OC)c2)c2cc3c(cc2OC1N1CCOCC1)OCO3 (stereo not given)")
"inactive"

* * *

Documented GI50 across a set of compounds
test system: HT-29; experiment: NCI tumour cell line growth inhibition, 48 h
Activity calls are given as the source filed them. Cut-off read from the data, not from the text of the source: active = GI50 up to about 1.1 µM and inactive = higher.
EXPERIMENTAL_READOUT: GI50

>>> data_value("CCCCCNC(=O)c1cc2cc(CCl)ccc2oc1=O")
"2.42 µM (inactive)"
>>> data_value("CCC(CO)COC(=O)/C=C/C(=O)OCC(CC)CO (stereo unspecified)")
"> 91 µM (inactive)"
>>> data_value("CSc1nc2nccnc2c(=O)[nH]1")
"> 100 µM (inactive)"
>>> data_value("CCC1C(c2cc(OC)c(OC)c(OC)c2)c2cc3c(cc2OC1N1CCOCC1)OCO3 (stereo unspecified)")
"2.73 µM (inactive)"
>>> data_value("c1ccc(C2SCC3=Nc4ccccc4CN32)cc1 (stereo unspecified)")
"17.8 µM (inactive)"
>>> data_value("Brc1cc2nn(-c3ccccc3)nc2c2nonc12")
"> 100 µM (inactive)"

* * *

A collection of compounds and their measured GI50
test system: SF-268; assay: NCI tumour cell line growth inhibition, 48 h
Active and inactive are the calls of the source. Cut-off read from the data, not from the text of the source: active = GI50 up to about 1.1 µM and inactive = higher.
EXPERIMENTAL_READOUT: GI50

>>> data_value("O=[N+]([O-])C1CC/C(=N/O)c2nonc21 (configuration not stated)")
"> 10 µM (inactive)"
>>> data_value("S=C(S)NCNC(=S)S")
"> 100 µM (inactive)"
>>> data_value("CC(=O)n1c(=O)c2cc3c(=O)n(-c4cccc(C#N)c4)c(=O)c3cc2c1=O")
"> 100 µM (inactive)"
>>> data_value("c1cc(-c2cnc(-c3ccc4c(c3)CCCO4)o2)ccn1")
"15.6 µM (inactive)"
>>> data_value("O=[N+]([O-])C1C2C=CC(C2)[C@H]1c1ccco1 (some centres not stated)")
"> 100 µM (inactive)"
>>> data_value("Cc1ccc(/C=C/C(=N/NC(=O)N/N=C(/C=C/c2ccc(C)cc2)C(C)C)C(C)C)cc1")
"> 10 µM (inactive)"
>>> data_value("NCCOc1cccc(C2(N3CCCCC3)CCCCC2)c1")
"25.6 µM (inactive)"

* * *

tested on: A498; assay: NCI tumour cell line growth inhibition, 48 h
The source made the active and inactive calls. No stated cut-off is given here; in the data, active = GI50 up to about 1.1 µM and inactive = higher.
Outcomes: 1 for active, 0 for inactive

>>> group_label("COCCOCOc1ccc(OCc2ccccc2)cc1")
0
>>> group_label("Cc1ccccc1-c1nc2c(C(=O)NCCN(C)C)cccc2[nH]1")
0
>>> group_label("COc1cc(C2SCC(=O)N2c2ccc(-n3c(-c4ccccc4)nc4ccccc4c3=O)cc2)ccc1O (stereo not drawn)")
0
>>> group_label("COc1ccc2c(c1)c1c(n2CCN(C)C)-c2cccc(OC)c2CC1")
0
>>> group_label("C=CCN1CC2CN=NC2(C#N)C1 (stereo not drawn)")
0
>>> group_label("COc1ccc(P2(=S)Oc3ccccc3-c3ccccc3O2)cc1")
1
>>> group_label("Cc1ccc(S(=O)(=O)NC(=O)C2=C3SCCN3C(=O)N(S(=O)(=O)c3ccc(C)cc3)C2c2ccccc2)cc1 (stereo not drawn)")
0
>>> group_label("COc1cccc(NC(=O)c2c(SC)c(C#N)c(=O)n(N)c2N)c1")
0

* * *

system: KM-20L2; test: NCI tumour cell line growth inhibition, 48 h
Activity calls are given as the source filed them. Cut-off read from the data, not from the text of the source: active = GI50 up to about 1.1 µM and inactive = higher.
# GI50 per record follows
EXPERIMENTAL_READOUT: GI50

>>> data_value("Cc1ccc(S(=O)(=O)OC(C=O)C(O)C(O)COC(c2ccccc2)(c2ccccc2)c2ccccc2)cc1 (configuration not stated)")
"14.1 µM (inactive)"
>>> data_value("N#Cc1ccc(Nc2cnc3ccc(N)cc3n2)cc1")
"> 100 µM (inactive)"
>>> data_value("CCCCCCCCCC(=O)N[C@H]1CCc2cc(OC)c(OC)c(OC)c2-c2ccc(SC)c(=O)cc21")
"0.0198 µM (active)"
>>> data_value("COc1ccc(/C=C/C(C(=O)O)C(=O)O)cc1")
"91.6 µM (inactive)"
>>> data_value("C=C(c1ccccc1)c1cc2c(=O)[nH]ccc2n1C")
"23.3 µM (inactive)"
>>> data_value("COc1ccc(-c2cc(=O)c3c(O)cccc3o2)c(OC)c1OC")
"> 100 µM (inactive)"
>>> data_value("COCCOCOc1ccc(OCc2ccccc2)cc1")
"> 100 µM (inactive)"
>>> data_value("CCC(CO)COC(=O)/C=C/C(=O)OCC(CC)CO (configuration not stated)")
"> 100 µM (inactive)"
>>> data_value("CN(C)C(=S)SSC(=S)N(C)C")
"1.64 µM (inactive)"
>>> data_value("Cc1cc(Br)ccc1/N=N/C1C(=O)ON=C1c1ccccc1 (configuration not stated)")
"55.2 µM (inactive)"
>>> data_value("CC1CCC2(NC1)OC1CC3[C@@H]4CC=C5C=CCC[C@]5(C)C4CC[C@]3(C)C1C2C (some centres not stated)")
"17.9 µM (inactive)"
>>> data_value("CSCC(COC(C)=O)(CSC)c1ccncc1")
"> 100 µM (inactive)"
